Hey, just so you know, these numbers are from patent EP4759815A1.

Test system: MDA-MB-436 cells
Experiment: MDA-MB-436 cell proliferation inhibition test (CellTiter-Glo, 7 days)
Assay type: cell-based
Conditions: Homo sapiens, MDA-MB-436, 168 h, 7 days incubation
Listed next: entries and their corresponding IC50.
Property measured: IC50 (nM)

{"Molecule": "CNC(=O)c1ccc(N2CCN(Cc3cc4c5c(cnn5c3)N(C(C)C)C(=O)N4)CC2)c(C)n1", "Property measured": "IC50", "Censoring sign": "=", "Measured value": 15}
{"Molecule": "CCCN1C(=O)Nc2cc(CN3CCN(c4ccc(C(=O)NC)nc4C)CC3)cn3ncc1c23", "Property measured": "IC50", "Censoring sign": "=", "Measured value": 20.9}
{"Molecule": "CNC(=O)c1ccc(N2CCN(Cc3cc4c5c(cnn5C5(CC5)C(=O)N4)c3)CC2)c(F)n1", "Property measured": "IC50", "Censoring sign": "<", "Measured value": 1.52}
{"Molecule": "CCC1C(=O)Nc2cc(CN3CCN(c4ccc(C(=O)NC)nc4F)CC3)cc3cnn1c23 (stereo not shown)", "Property measured": "IC50", "Censoring sign": "=", "Measured value": 15.4}
